Test system: 786-O
Assay Explanation: Euclidean distance of Cell Painting phenotypic profile (signed KS, 77 features) to DMSO centroid (dimensionless distance); 5 or 10 uM (library dependent); higher = stronger phenotypic change vs DMSO (phenoactivity)
Applied Conditions: 48 h
Where a name gives a salt, the structure may show the parent alone.
Reported Endpoint: Euclidean distance

Looking for the measured Euclidean distance of CC1=C(C(=O)OCCN(Cc2ccccc2)c2ccccc2)C(c2cccc([N+](=O)[O-])c2)C(P2(=O)OCC(C)(C)CO2)=C(C)N1 (configuration not stated) , can you help? 1.73

Looking for the measured Euclidean distance of `CNC[C@@H](O)c1ccc(O)c(O)c1` , can you help? 1.4

Looking for the measured Euclidean distance of CCS(=O)(=O)N1CC(CC#N)(n2cc(-c3ncnc4[nH]ccc34)cn2)C1 [Baricitinib phosphate] , can you help? 1.75

Looking for the measured Euclidean distance of `O=C(Nc1cc(C(F)(F)F)ccc1N1CCCCC1)c1ccncc1` , can you help? 0.961

Looking for the measured Euclidean distance of `O=c1ccc2ccc(OCCCCN3CCN(c4cccc5sccc45)CC3)cc2[nH]1` , can you help? 1.47

Looking for the measured Euclidean distance of CCCCS(=O)(=O)N[C@@H](Cc1ccc(OCCCCC2CCNCC2)cc1)C(=O)O [Tirofiban Hydrochloride] , can you help? 1

Looking for the measured Euclidean distance of `O=C(c1ccc(OCCCc2c[nH]cn2)cc1)C1CC1` , can you help? 1.15

Looking for the measured Euclidean distance of COCC1=C(C(=O)OC(C)OC(=O)OC(C)C)N2C(=O)[C@@H](NC(=O)/C(=N\OC)c3csc(N)n3)[C@H]2SC1 (some centres not stated) , can you help? 1.25

Looking for the measured Euclidean distance of `O=C(CCCN1CCN(c2ccccn2)CC1)c1ccc(F)cc1` , can you help? 0.919

Looking for the measured Euclidean distance of `Cc1cnc(-c2cc(N3CCN(C(=O)CCS(C)(=O)=O)CC3)ncc2Cl)c(C)c1` , can you help? 0.761

Looking for the measured Euclidean distance of `Cc1ccc(C(=O)Nc2ccc(CN3CCN(C)CC3)c(C(F)(F)F)c2)cc1C#Cc1cnc2cccnn12` , can you help? 4.62

Looking for the measured Euclidean distance of CC1(C)S[C@@H]2[C@H](NC(=O)[C@H](N)c3ccc(O)cc3)C(=O)N2[C@H]1C(=O)O [Amoxicillin trihydrate] , can you help? 0.875

Looking for the measured Euclidean distance of `CCn1cc(-c2ccnc3[nH]c(-c4cccc(CN(C)C)c4)cc23)c(-c2ccc(NC(=O)N(C)C)cc2)n1` , can you help? 2.56

Looking for the measured Euclidean distance of `CCCCOC(=O)c1ccc(N)cc1` , can you help? 1.09

Looking for the measured Euclidean distance of `C[C@]12CC[C@@H]3c4ccc(O)cc4CC[C@H]3[C@@H]1C[C@@H](O)[C@@H]2O` , can you help? 1.2

Looking for the measured Euclidean distance of CCOc1nc2cccc(C(=O)OC(C)OC(=O)OC3CCCCC3)c2n1Cc1ccc(-c2ccccc2-c2nn[nH]n2)cc1 (configuration not stated) , can you help? 1.1

Looking for the measured Euclidean distance of COc1cc(OC)c2c(=O)[nH]c(-c3cc(C)c(OCCO)c(C)c3)nc2c1 [Apabetalone (RVX-208)] , can you help? 1.25

###

System: OVCAR4
Assay Explanation: Euclidean distance of Cell Painting phenotypic profile (signed KS, 77 features) to DMSO centroid (dimensionless distance); 5 or 10 uM (library dependent); higher = stronger phenotypic change vs DMSO (phenoactivity)
Applied Conditions: 48 h
Where a name gives a salt, the structure may show the parent alone.
Reported Endpoint: Euclidean distance
Reply with just the number.

Looking for the measured Euclidean distance of [O-][n+]1cccc(-c2nc3c(Cl)cccc3cc2[C@@H](Nc2ncnc3cccnc23)C(F)(F)F)c1 [Seletalisib (UCB-5857)] , can you help? 2.03

Looking for the measured Euclidean distance of CCCCC1(COC(=O)CCC(=O)O)C(=O)N(c2ccccc2)N(c2ccccc2)C1=O [Suxibuzone] , can you help? 1.57

Looking for the measured Euclidean distance of CC1=C[C@H](O)CC(C)(C)[C@H]1/C=C/C(C)=C/C=C/C(C)=C/C=C/C=C(C)/C=C/C=C(C)/C=C/C1=C(C)C[C@@H](O)CC1(C)C [lutein] , can you help? 1

Looking for the measured Euclidean distance of C=CCOc1ccccc1OCC(O)CNC(C)C (stereo not drawn) [Oxprenolol HCl] , can you help? 0.994

Looking for the measured Euclidean distance of `O=C(O)Cn1nnc(-c2cc(N3CCC(Oc4cc(F)ccc4Br)CC3)no2)n1` , can you help? 0.751

Looking for the measured Euclidean distance of `CC(C)C[C@H](NC(=O)CNC(=O)c1cc(Cl)ccc1Cl)B1OC(=O)C(CC(=O)O)(CC(=O)O)O1` , can you help? 4.36

Looking for the measured Euclidean distance of CCS(=O)(=O)CCn1c([N+](=O)[O-])cnc1C [Tinidazole] , can you help? 1.48

Looking for the measured Euclidean distance of C=CC(=O)Nc1cccc(Oc2nc(Nc3ccc(N4CCN(C)CC4)c(F)c3)nc3[nH]ccc23)c1 [Avitinib (AC0010)] , can you help? 3.76

###

Tested on: DU145
Assay Explanation: Euclidean distance of Cell Painting phenotypic profile (signed KS, 77 features) to DMSO centroid (dimensionless distance); 5 or 10 uM (library dependent); higher = stronger phenotypic change vs DMSO (phenoactivity)
Applied Conditions: 48 h
Where a name gives a salt, the structure may show the parent alone.
Reported Endpoint: Euclidean distance
Reply with just the number.

Request: Euclidean distance, test system DU145, entry C[S+](CC[C@H](N)C(=O)[O-])C[C@H]1O[C@@H](n2cnc3c(N)ncnc32)[C@H](O)[C@@H]1O (stereo partly specified) 0.772

Request: Euclidean distance, test system DU145, entry N=C(N)NC(=O)Cc1c(Cl)cccc1Cl [Guanfacine Hydrochloride] 1.05

Request: Euclidean distance, test system DU145, entry `COc1ccc(-c2cc(=O)c3c(O)cc(O)cc3o2)cc1O` 0.892

Request: Euclidean distance, test system DU145, entry CC1=C(C(=O)O)N2C(=O)[C@@H](NC(=O)[C@H](N)C3=CCC=CC3)[C@H]2SC1 [Cephradine monohydrate] 2.12

Request: Euclidean distance, test system DU145, entry CCCOc1ccc(C(=O)OCCN(CC)CC)cc1N [Proparacaine HCl] 1.7

Request: Euclidean distance, test system DU145, entry `Cc1c(F)cccc1NC(=O)Nc1ccc(Cl)c(S(=O)(=O)[C@H]2CCCNC2)c1O` 0.758

Request: Euclidean distance, test system DU145, entry `COC(=O)N1CCN(Cc2cccc(NC(=O)Nc3ccc(C)nc3)c2F)CC1` 0.538

Request: Euclidean distance, test system DU145, entry `N.N.O=C([O-])C[O-].[Pt+2]` 4.02

Request: Euclidean distance, test system DU145, entry `OC[C@H]1O[C@@H](Oc2ccc(O)cc2)[C@H](O)[C@@H](O)[C@@H]1O` 2.06

Request: Euclidean distance, test system DU145, entry `CCCCOc1nc(N)c2c(n1)N(Cc1cccc(CN3CCCC3)c1)CC(=O)N2` 0.661

Request: Euclidean distance, test system DU145, entry `CC(C)Oc1ccc2c(=O)c(-c3ccccc3)coc2c1` 1.15

Request: Euclidean distance, test system DU145, entry `O=C(O)C1(c2ccc(-c3ccc(Cl)c(Cl)c3)c(F)c2)CC1` 1.42

Request: Euclidean distance, test system DU145, entry CCOC(=O)[C@H](CCc1ccccc1)N[C@H]1CS[C@H](c2cccs2)CN(CC(=O)O)C1=O [Temocapril HCl] 0.716

Request: Euclidean distance, test system DU145, entry CN(CCOc1ccc(CC2SC(=O)NC2=O)cc1)c1ccccn1 (stereo unspecified) [Rosiglitazone] 0.878

Request: Euclidean distance, test system DU145, entry C[n+]1ccccc1/C=N/O [Pralidoxime chloride] 1.53

Request: Euclidean distance, test system DU145, entry `C=CC(=O)N1C[C@H](Nc2ncnc3[nH]ccc23)CC[C@@H]1C` 1.09

Request: Euclidean distance, test system DU145, entry `CC(C)(C)c1cnc(CSc2cnc(NC(=O)C3CCNCC3)s2)o1` 2.93

Request: Euclidean distance, test system DU145, entry CN1CCN2c3ccccc3Cc3ccccc3C2C1 (stereo unspecified) [Mianserin HCl] 0.876

Request: Euclidean distance, test system DU145, entry `C=C[C@](C)(O)CC[C@@H]1[C@@]2(C)CCCC(C)(C)[C@@H]2CC[C@@]1(C)O` 0.574

Request: Euclidean distance, test system DU145, entry `C[C@H]1C[C@@H]2[C@H]([C@@H](O)C[C@@]3(C)[C@H]2CC[C@]3(O)C(=O)CO)[C@@]2(C)C=CC(=O)C=C12` 1.76

Request: Euclidean distance, test system DU145, entry Nc1ncnc2c1ncn2C1OC(COP(=O)(O)O)C(O)C1O (stereo unspecified) [Adenosine 5'-monophosphate monohydrate] 0.9

Request: Euclidean distance, test system DU145, entry CN(C)[C@@H](CCOc1cccc2ccccc12)c1ccccc1 [Dapoxetine HCl] 2.96

Request: Euclidean distance, test system DU145, entry `CCN1CCN(c2ccc(Nc3cc(N(C)C(=O)Nc4c(Cl)c(OC)cc(OC)c4Cl)ncn3)cc2)CC1` 2.87

Request: Euclidean distance, test system DU145, entry `CCCOc1ccc2[nH]c(NC(=O)OC)nc2c1` 3.08

Request: Euclidean distance, test system DU145, entry CN[C@@H]1[C@H](O)[C@H](NC)[C@H]2O[C@@]3(O)C(=O)C[C@@H](C)O[C@H]3O[C@@H]2[C@H]1O [Spectinomycin 2HCl] 0.979

Request: Euclidean distance, test system DU145, entry `Nc1ccn([C@@H]2O[C@H](CO)[C@@H](O)[C@H]2O)c(=O)n1` 1.04

Request: Euclidean distance, test system DU145, entry `N[C@@H]1CCCC[C@H]1N.O=C([O-])C(=O)[O-].[Pt+2]` 1.15

Request: Euclidean distance, test system DU145, entry CCC1=C[C@@H]2CN(C1)Cc1c([nH]c3ccccc13)[C@@](C(=O)OC)(c1cc3c(cc1OC)N(C)[C@H]1[C@@](O)(C(=O)OC)[C@H](OC(C)=O)[C@]4(CC)C=CCN5CC[C@]31[C@@H]54)C2 [Vinorelbine Tartrate] 4.27

Request: Euclidean distance, test system DU145, entry `O=C(NCc1ccccc1)c1csc(Nc2ccncn2)n1` 2.87

Request: Euclidean distance, test system DU145, entry `CC1(C)S[C@@H]2[C@H](NC(=O)Cc3ccccc3)C(=O)N2[C@H]1C(=O)O.CCN(CC)CCOC(=O)c1ccc(N)cc1` 0.97

Request: Euclidean distance, test system DU145, entry `O=c1cc(N2CCOCC2)oc2c1ccc1ccccc12` 1.41

Request: Euclidean distance, test system DU145, entry `O=c1cc(N2CCOCC2)oc2c(-c3cccc4c3sc3ccccc34)cccc12` 2.15

Request: Euclidean distance, test system DU145, entry `CC1(COc2ccc3c(c2)ncn3-c2ccc3cccc(N4CCC(N)CC4)c3n2)COC1` 3.27

Request: Euclidean distance, test system DU145, entry `Cc1[nH]c(=O)c(C#N)cc1-c1ccc2nccn2c1` 0.61

Request: Euclidean distance, test system DU145, entry CN1CCCN=C1/C=C/c1cccs1 [Pyrantel Pamoate] 0.771

Request: Euclidean distance, test system DU145, entry CC(=O)Oc1ccccc1C(=O)Nc1ncc([N+](=O)[O-])s1 [Nitazoxanide] 1.96
